- Tested on: 616215-338-R-J1-PDC tumor spheroids, viability;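 further: spheroids exposed to agents for 7 days before readout; percent viability relative to DMSO vehicle control wells taken as 100%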
- assayRemarks: Anticancer human tumor 616215-338-R-J1-PDC patient-derived colon adenocarcinoma cell line growth inhibition [GQUAD]
- studyConditions: second compound 1 µM; first compound 3.16 µM; hits give low values; spheroids with HUVEC and MSC
measure: viability, T/C (%)
Write the number in % without appending the unit.

Challenge: Sample Nc1ccn(C2OC(CO)C(O)C2(F)F)c(=O)n1 (stereo not drawn) + Cc1[nH]c2ccc(F)cc2c1-c1nc2c3cccnc3c3ncccc3c2[nH]1 — what was its viability, T/C?
Response given: 13.4

Challenge: Can you check O=c1[nH]cc(F)c(=O)[nH]1 + Cc1cnc(CNC(=O)c2c(=O)c3ccc(N4CCCN(C)CC4)nc3n3c2sc2ccccc23)cn1 next?
Response given: 36.6

Challenge: Can you check COc1cc(C2c3cc4c(cc3C(OC3OC5COC(C)OC5C(O)C3O)C3COC(=O)C23)OCO4)cc(OC)c1O (stereo not drawn) + Cc1[nH]c2ccc(F)cc2c1-c1nc2c3cccnc3c3ncccc3c2[nH]1 next?
Response given: 41.9
